// cross-source set; read-out = IC50; system = Ephrin type-B receptor 4 (Homo sapiens, UniProt P54760)

[[record]]
compound = "Nc1ncc(-c2cccc(S(N)(=O)=O)c2)c2occ(-c3ccc(NC(=O)Nc4cc(C(F)(F)F)ccc4F)cc3)c12"
endpoint = "IC50"
data_value = "0.316 to 3.16 nM"


Challenge: Can you look up IC50 on Ephrin type-B receptor 4 (Homo sapiens, UniProt P54760) for C#Cc1cccc(Nc2ncnc(Nc3ccc(OC)c(OC)c3)n2)c1 ?
Response given: > 13000 nM

Challenge: Can you look up IC50 on Ephrin type-B receptor 4 (Homo sapiens, UniProt P54760) for COc1cc2c(Nc3ccc(Cl)c(Cl)c3)ncnc2cc1OCC1CN(C(=O)OC(C)(C)C)CCO1 (stereo not drawn) ?
Response given: < 50 nM

----------
// cross-source set; read-out = IC50; system = Ephrin type-B receptor 4 (Homo sapiens, UniProt P54760)

Challenge: Can you look up IC50 on Ephrin type-B receptor 4 (Homo sapiens, UniProt P54760) for COc1cc(Nc2ncnc(-n3c(Nc4ccc(C#N)cc4)nc4ccccc43)n2)cc(OC)c1OC ?
Response given: 0.809 to 4.85 µM

Challenge: Can you look up IC50 on Ephrin type-B receptor 4 (Homo sapiens, UniProt P54760) for COc1cc(NC(=O)Nc2ccc(-c3cc(-c4nc5ccc(N6CCN(C)CC6)cc5[nH]4)n[nH]3)cc2)cc(OC)c1 ?
Response given: > 5 µM

Challenge: Can you look up IC50 on Ephrin type-B receptor 4 (Homo sapiens, UniProt P54760) for COc1cc2c(Nc3ccc(Cl)c(Cl)c3)ncnc2cc1OCC1CC1 ?
Response given: 0.05 to 1 µM

Challenge: Can you look up IC50 on Ephrin type-B receptor 4 (Homo sapiens, UniProt P54760) for O=C1OCc2ccc(Nc3ncnc(Nc4cc(-c5ccco5)n[nH]4)n3)cc21 ?
Response given: 1.07 to 6.39 µM

Challenge: Can you look up IC50 on Ephrin type-B receptor 4 (Homo sapiens, UniProt P54760) for COc1cc(Nc2ncnc(Nc3ccc(Br)cc3F)n2)cc(OC)c1OC ?
Response given: 0.888 to 5.33 µM

Challenge: Can you look up IC50 on Ephrin type-B receptor 4 (Homo sapiens, UniProt P54760) for CCOC(=O)Cc1ccc(Nc2ncnc(Nc3cc(OC)c(OC)c(OC)c3)n2)cc1 ?
Response given: > 10.2 µM
